- System: Type I-Fv Cascade (Cas5fv, His-Cas7fv, Cas6f, crRNA spacer4) (Shewanella putrefaciens CN-32)
- Procedure Details: BLI
- Condition Notes: BLI buffer: SEC buffer (composition in Supplementary Table II, not in material) + 0.1 uM BSA + 0.01% Triton X-100, 100 nM biotinylated oligonucleotide loaded …
pKd: −log10 of the molar value.
Quantity Measured: pKd

{"columns": ["Residue Sequence", "Test Result"],
 "data": [
  ["CGCCGGTTATAGGTTTGCGCGTCTTGCTGGGCGATAGGACGTGGGATATCTTTTTGATATCCCACGTCCTATCGCCCAGCAAGACGCGCAAACCTATAACCGGCG (double strand) [Complementary (GG PAM)]", 7.33]
]}
